target: POS-1 (Caenorhabditis elegans) binding to mex-3 RNA; test: C. elegans POS-1 RNA interaction disruptors – biochemical, fluorescence polarization, cherry-picked samples, set 2, counter-screen for MEX-5 RNA-binding inhibitor project, dose response (AID 493130); conditions: POS-1/mex-3 RNA fluorescence polarization, 1 h; at 10 µM (top of the series);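 further: POS-1 as maltose binding protein fusion made in E. coli with FITC RNA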
Results filed as inconclusive are left out. Calls of active or inactive are those of the source.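 How the source made its calls: active means signal-lowering compounds whose fitted half-maximal concentration is at most ten times their highest tested dose; inconclusive means flat fit between -30 and -70%, or poor fit; inactive means flat within 30%, signal rising, or potency beyond limit.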
MEASURED METRIC: activity change, negative = inhibition

{"MOLECULE": "O=C(NNS(=O)(=O)c1ccc(F)cc1)c1cnccn1", "MEASURED METRIC": "activity change, negative = inhibition", "REPORTED MEASUREMENT": "inactive"}
{"MOLECULE": "CCOC(=O)c1cnc(SCC(=O)NNC(=O)c2ccco2)nc1N", "MEASURED METRIC": "activity change, negative = inhibition", "REPORTED MEASUREMENT": "inactive"}
{"MOLECULE": "CCn1c(O)c(N=NC(=O)CNC(=O)/C=C/c2ccco2)c2ccccc21", "MEASURED METRIC": "activity change, negative = inhibition", "REPORTED MEASUREMENT": "inactive"}
{"MOLECULE": "CCN(CC(=O)Nc1ccc(NC(C)=O)cc1)Cc1c(O)ccc2cc(Br)ccc12", "MEASURED METRIC": "activity change, negative = inhibition", "REPORTED MEASUREMENT": "inactive"}

Batch request: activity change, negative = inhibition per item, same order as input.
1. O=C(O)c1ccc(NC2=C(Cl)C(=O)c3ccccc3C2=O)cc1
2. CCN(Cc1ccccc1)c1ccc(/C=C(\C#N)c2ccccn2)cc1
3. CCOC(=O)CC1=C(C(=O)OCC)C(c2ccc(OC)cc2OC)C(C#N)=C(N)O1 (centres undefined)
4. COc1ccc(CCn2c(=N)c(C(=O)NCC3CCCO3)cc3c(=O)n4ccccc4nc32)cc1 (centres undefined)
5. CC(=O)CCS(=O)(=O)c1ccc(Oc2ccc(S(=O)(=O)CCC(C)=O)cc2)cc1
6. CCCOc1ccc(C2=CSC3=NCCN23)cc1[N+](=O)[O-]
7. COC(=O)c1cccc(-c2ccc(C(c3c(C)[nH][nH]c3=O)c3c(C)[nH][nH]c3=O)o2)c1
8. Cc1cc(/C=C2\C(=O)NC(=O)N(c3cccc(F)c3)C2=O)c(C)n1-c1cc(C(=O)O)cc(C(=O)O)c1

[out]
1. inactive
2. inactive
3. inactive
4. inactive
5. inactive
6. inactive
7. inactive
8. inactive
